Biological target: human SPPL2a (Homo sapiens, UniProt Q8TCT8)
Sequence (Q8TCT8 26-520): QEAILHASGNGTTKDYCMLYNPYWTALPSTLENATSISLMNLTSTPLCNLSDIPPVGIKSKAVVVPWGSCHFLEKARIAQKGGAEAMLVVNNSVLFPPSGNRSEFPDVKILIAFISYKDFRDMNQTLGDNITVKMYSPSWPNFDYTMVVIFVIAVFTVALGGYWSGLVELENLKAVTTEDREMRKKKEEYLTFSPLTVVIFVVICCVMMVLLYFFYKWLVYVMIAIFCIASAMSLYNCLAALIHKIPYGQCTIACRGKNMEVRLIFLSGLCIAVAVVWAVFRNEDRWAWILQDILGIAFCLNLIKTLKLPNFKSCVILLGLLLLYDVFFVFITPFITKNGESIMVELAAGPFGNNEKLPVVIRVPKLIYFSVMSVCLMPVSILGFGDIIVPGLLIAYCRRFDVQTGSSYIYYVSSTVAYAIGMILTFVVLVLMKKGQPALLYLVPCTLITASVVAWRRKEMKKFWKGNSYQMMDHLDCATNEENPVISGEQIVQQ
Assay: Sppl2a RGA (reporter gene assay) in HEK293 cells
Assay type: cell-based
Parameters: expressed in transfected cells; host or cells: HEK293 (transient)
Conditions: NT-TNF-VP16-Gal4 substrate, Gal4-luciferase reporter, 24 h
From the text: Sppl2a RGA (Reporter Gene Assay): Sppl2a is an intramembrane aspartyl protease with similarities to presenilin, the active subunit of the γ-secretase complex. […] The luciferase dependent-luminescence is plotted against the concentrations of compound to generate a dose response curve, which allows the calculation of the IC50 value. […]
endpoint_label: IC50 (nM)
The figure you give is taken to be in nM; do not add the unit.

smiles_code | reading
COc1ccc(-c2cc(NC(=O)C[C@@H](C)C(=O)N[C@@H]3C(=O)N4CCCN4Cc4ccccc43)n(C)n2)cn1 | 15
C[C@H](CNC(=O)c1sc(C2CC2)nc1Cl)C(=O)N[C@@H]1C(=O)N2CCCN2Cc2ccccc21 | 104
Cc1cc(F)cc2nc(C[C@@H](C)C(=O)N[C@@H]3C(=O)N4CCCN4Cc4c(F)cccc43)[nH]c12 | 19
CC[C@H](CNC(=O)c1scnc1Cl)C(=O)N[C@@H]1C(=O)N2CCCN2Cc2ccccc21 | 24

Requested read-out: IC50. Entry: C[C@H](CC(=O)Nc1cc(C(=O)NCC(F)(F)F)nn1C)C(=O)N[C@@H]1C(=O)N2CCCN2Cc2ccccc21
34

Requested read-out: IC50. Entry: Cc1nc(C2=CCOCC2)sc1C(=O)NC[C@H](C(=O)N[C@@H]1C(=O)N2CCCN2Cc2ccccc21)C(F)(F)F
27

Requested read-out: IC50. Entry: Cc1nc(C(=O)NC(C)C)sc1C(=O)NC[C@H](C(=O)N[C@@H]1C(=O)N2CCCN2Cc2ccccc21)C1CC1
5

----------
A collection of compounds and their measured IC50
target: human SPPL2a (Homo sapiens); test: Sppl2a RGA (reporter gene assay) in HEK293 cells; type: cell-based; parameters: expressed in transfected cells; host or cells: HEK293 (transient); details: NT-TNF-VP16-Gal4 substrate, Gal4-luciferase reporter, 24 h
Reply with the number, then its unit.

Below: 3 compounds and their reported IC50.
smiles_code | system_under_test | endpoint_label | reading
C[C@H](CC(=O)Nc1sc(-c2ccn(C)n2)nc1Cl)C(=O)N[C@@H]1C(=O)N2CCCN2Cc2ccccc21 | human SPPL2a (Homo sapiens) | IC50 | 25 nM
C[C@H](CC(=O)Nc1cc(NC(=O)c2ccccc2F)nn1C)C(=O)N[C@@H]1C(=O)N2CCCN2Cc2ccccc21 | human SPPL2a (Homo sapiens) | IC50 | 9 nM
CC[C@H](CNC(=O)c1sc(C(=O)NC)nc1C)C(=O)N[C@@H]1C(=O)N2CCCN2Cc2ccccc21 | human SPPL2a (Homo sapiens) | IC50 | 8 nM

Requested read-out: IC50. Entry: CC[C@H](CNC(=O)c1oncc1C)C(=O)N[C@@H]1C(=O)N2CCCN2Cc2ccccc21
52 nM

Requested read-out: IC50. Entry: CC[C@H](CNC(=O)c1sc(C(=O)NCC(F)F)nc1C)C(=O)N[C@@H]1C(=O)N2CCCN2Cc2ccccc21
4 nM

Requested read-out: IC50. Entry: Cc1nc(Cl)c(C(=O)NC[C@H](C(=O)N[C@@H]2C(=O)N3CCCN3Cc3c(F)cccc32)C2CC2)s1
152 nM

Requested read-out: IC50. Entry: CCCOc1nc(C)c(C(=O)NC[C@@H](CC)C(=O)N[C@@H]2C(=O)N3CCCN3Cc3ccccc32)s1
16 nM

Requested read-out: IC50. Entry: Cc1cc(F)cc2nc(C[C@@H](C)C(=O)N[C@@H]3C(=O)N4CCCN4Cc4ccccc43)[nH]c12
21 nM

Requested read-out: IC50. Entry: C[C@@H](CF)NC(=O)c1cc(NC(=O)C[C@H](C(=O)N[C@@H]2C(=O)N3CCCN3Cc3ccccc32)C2CC2)n(C)n1
43 nM
